- Tested on: BT-549
- protocol.notes: Cell viability assay, BT-549
- Type: cell-based
- stated.conditions: Homo sapiens, 72 h; BT-549, TNBC, 3 days; read-out: Cellular Anti-proliferation activity (IC50)
measurement.kind: IC50 (µM)

>  <compound>
CC(=O)c1c(C)c2cnc(Nc3ccc(N4CCN(CC(=O)NCCOCCOCCOCCOCCOCCNc5ccc(C(=O)Nc6ncc(C)s6)c(C)c5)CC4)cn3)nc2n(C2CCCC2)c1=O [CPD-002]

>  <unit.string>
µM

>  <result>
0.69

$$$$

I = CC(=O)c1c(C)c2cnc(Nc3ccc(N4CCN(CC(=O)NCCOCCOCCOCCOCCOCCNc5ccc(C(=O)Nc6nc(C)c(C)s6)c(C)c5)CC4)cn3)nc2n(C2CCCC2)c1=O [CPD-031]
II = CCN1CCN(Cc2ccc(Nc3ncc(F)c(-c4cc(F)c5nc(C)n(C(C)C)c5c4)n3)nc2)CC1 [abemaciclib]
Select one: I or II . Criterion: greater recorded IC50. Write down the label attached to your selection.
II

###

- measured.on: CDK4 (Homo sapiens, UniProt P11802)
- Construct: endogenous in cells; host or cells: Calu-1
- Sequence (P11802 2-303 limits assumed): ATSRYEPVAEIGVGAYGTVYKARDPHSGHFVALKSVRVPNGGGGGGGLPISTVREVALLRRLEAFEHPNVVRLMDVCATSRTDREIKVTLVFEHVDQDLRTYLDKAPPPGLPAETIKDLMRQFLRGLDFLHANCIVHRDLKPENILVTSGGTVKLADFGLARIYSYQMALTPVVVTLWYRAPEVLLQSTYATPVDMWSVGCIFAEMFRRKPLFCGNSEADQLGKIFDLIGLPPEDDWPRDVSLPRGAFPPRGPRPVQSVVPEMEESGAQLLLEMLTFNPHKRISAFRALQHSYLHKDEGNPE
- Sequence (P24385 whole entry partner): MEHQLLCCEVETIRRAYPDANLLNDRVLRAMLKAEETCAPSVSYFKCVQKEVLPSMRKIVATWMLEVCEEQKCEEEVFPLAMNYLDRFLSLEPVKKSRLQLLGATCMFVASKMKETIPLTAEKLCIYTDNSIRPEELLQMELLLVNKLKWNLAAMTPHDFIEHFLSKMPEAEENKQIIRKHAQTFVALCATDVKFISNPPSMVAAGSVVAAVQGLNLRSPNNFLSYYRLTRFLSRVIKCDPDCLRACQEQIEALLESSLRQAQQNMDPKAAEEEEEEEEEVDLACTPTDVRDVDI
- Sequence (Q16531 2-1140 limits assumed, further chain): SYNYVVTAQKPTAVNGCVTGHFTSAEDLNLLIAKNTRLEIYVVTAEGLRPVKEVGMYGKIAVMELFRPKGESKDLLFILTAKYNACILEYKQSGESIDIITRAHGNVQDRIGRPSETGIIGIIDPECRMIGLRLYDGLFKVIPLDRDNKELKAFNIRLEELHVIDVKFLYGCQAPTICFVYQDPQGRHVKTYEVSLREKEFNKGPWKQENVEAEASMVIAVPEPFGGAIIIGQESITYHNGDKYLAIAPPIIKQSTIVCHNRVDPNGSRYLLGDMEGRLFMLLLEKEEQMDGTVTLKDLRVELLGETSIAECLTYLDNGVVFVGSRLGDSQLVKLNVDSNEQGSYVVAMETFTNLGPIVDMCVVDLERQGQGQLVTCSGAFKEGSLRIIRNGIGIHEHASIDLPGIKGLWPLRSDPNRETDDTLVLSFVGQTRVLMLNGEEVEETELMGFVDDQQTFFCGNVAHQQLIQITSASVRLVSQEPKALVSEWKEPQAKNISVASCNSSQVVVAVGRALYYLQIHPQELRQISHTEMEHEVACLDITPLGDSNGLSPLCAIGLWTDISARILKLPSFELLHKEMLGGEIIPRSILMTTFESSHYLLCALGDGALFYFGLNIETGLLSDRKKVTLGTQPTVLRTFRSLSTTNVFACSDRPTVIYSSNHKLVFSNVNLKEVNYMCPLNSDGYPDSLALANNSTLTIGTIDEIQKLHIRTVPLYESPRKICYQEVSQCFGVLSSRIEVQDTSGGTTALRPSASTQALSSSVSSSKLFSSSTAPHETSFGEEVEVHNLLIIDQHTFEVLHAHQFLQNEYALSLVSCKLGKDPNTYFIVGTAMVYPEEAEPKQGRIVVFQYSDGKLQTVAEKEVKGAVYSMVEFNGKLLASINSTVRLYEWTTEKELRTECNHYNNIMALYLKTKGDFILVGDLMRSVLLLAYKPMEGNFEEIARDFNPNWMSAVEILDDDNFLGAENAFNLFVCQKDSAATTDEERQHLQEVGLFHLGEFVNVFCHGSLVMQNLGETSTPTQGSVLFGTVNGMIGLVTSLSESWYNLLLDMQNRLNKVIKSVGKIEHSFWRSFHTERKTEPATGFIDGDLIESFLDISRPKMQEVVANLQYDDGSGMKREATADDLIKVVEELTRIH
- protocol.notes: CDK4 percentage degradation in Calu-1 cells (immunoblotting)
- Type: cell-based
- stated.conditions: Calu-1, 16 h, read-out: CDK4 Degradation (200 nM)
Each entry below carries its reported inhibition at 0.2 µM.

The following compounds have reported results that may help.
>  <compound>
CC(=O)c1c(C)c2cnc(Nc3ccc(N4CCN(C(=O)CCOCCOCCOCCNc5ccc(C)c(C(=O)Nc6nc(C)c(C)s6)c5)CC4)cn3)nc2n(C2CCCC2)c1=O [CPD-111]

>  <result>
< 30%

$$$$
>  <compound>
CC(=O)c1c(C)c2cnc(Nc3ccc(N4CCN(C(=O)CCCCCCC(=O)Nc5ccccc5C(=O)Nc5nc(C)c(C)s5)CC4)cn3)nc2n(C2CCCC2)c1=O [CPD-161]

>  <result>
< 30%

$$$$

Entry CC(=O)c1c(C)c2cnc(Nc3ccc(N4CCN(CC(=O)NCCOCCOCCOCCNc5ccc(C)c(C(=O)Nc6nc(C)c(C)s6)c5)CC4)cn3)nc2n(C2CCCC2)c1=O [CPD-127] has what inhibition at 0.2 µM?
30 to 50%

// returns reported inhibition at 0.2 µM for input CC(=O)c1c(C)c2cnc(Nc3ccc(N4CCN(C(=O)CNc5cccc(C(=O)Nc6nc(C)c(C)s6)c5C)CC4)cn3)nc2n(C2CCCC2)c1=O [CPD-124]
< 30%

Reported inhibition at 0.2 µM for CC(=O)c1c(C)c2cnc(Nc3ccc(N4CCN(C(=O)CCOCCOCCOCCC(=O)Nc5ccccc5C(=O)Nc5nc(C)c(C)s5)CC4)cn3)nc2n(C2CCCC2)c1=O [CPD-357] : what is it?
50 to 80%

// returns reported inhibition at 0.2 µM for input CC(=O)c1c(C)c2cnc(Nc3ccc(N4CCN(C(=O)CCCCCCCC(=O)Nc5ccccc5C(=O)Nc5nc(C)c(C)s5)CC4)cn3)nc2n(C2CCCC2)c1=O [CPD-160]
50 to 80%

# inhibition at 0.2 µM lookup, item CC(=O)c1c(C)c2cnc(Nc3ccc(N4CCN(C(=O)CCOCCOCCOCCOCCOCCOCCC(=O)Nc5ccccc5C(=O)Nc5nc(C)c(C)s5)CC4)cn3)nc2n(C2CCCC2)c1=O [CPD-182]
< 30%

Need inhibition at 0.2 µM, item CC(=O)c1c(C)c2cnc(Nc3ccc(N4CCN(C(=O)CCNc5ccc(C)c(C(=O)Nc6nc(C)c(C)s6)c5)CC4)cn3)nc2n(C2CCCC2)c1=O [CPD-091]
< 30%

Quick check: inhibition at 0.2 µM of CC(=O)c1c(C)c2cnc(Nc3ccc(N4CCN(C(=O)CCOCCOCCOCCNc5cccc(C(=O)Nc6nc(C)c(C)s6)c5C)CC4)cn3)nc2n(C2CCCC2)c1=O [CPD-122] ?
50 to 80%

Tell me the measured inhibition at 0.2 µM of CC(=O)c1c(C)c2cnc(Nc3ccc(N4CCN(CCCCCCCCCCCC(=O)Nc5ccccc5C(=O)Nc5nc(C)c(C)s5)CC4)cn3)nc2n(C2CCCC2)c1=O [CPD-177] , please.
< 30%

What value of inhibition at 0.2 µM has been recorded for this entry: CC(=O)c1c(C)c2cnc(Nc3ccc(N4CCN(CCCCCCCC(=O)Nc5ccccc5C(=O)Nc5ccc(C)cn5)CC4)cn3)nc2n(C2CCCC2)c1=O [CPD-183]
< 30%

What measured inhibition at 0.2 µM goes with CC(=O)c1c(C)c2cnc(Nc3ccc(N4CCN(C(=O)CCCCCCCCC(=O)Nc5ccccc5C(=O)Nc5nc(C)c(C)s5)CC4)cn3)nc2n(C2CCCC2)c1=O [CPD-162] ?
< 30%

May I ask what inhibition at 0.2 µM has been recorded for CC(=O)c1c(C)c2cnc(Nc3ccc(N4CCN(C(=O)CCOCCOCCOCCOCCOCCOCCNc5ccc(C)c(C(=O)Nc6nc(C)c(C)s6)c5)CC4)cn3)nc2n(C2CCCC2)c1=O [CPD-131] ?
< 30%

Look up inhibition at 0.2 µM: CC(=O)c1c(C)c2cnc(Nc3ccc(N4CCN(C(=O)CCOCCOCCOCCOCCOCCNc5cccc(C(=O)Nc6nc(C)c(C)s6)c5C)CC4)cn3)nc2n(C2CCCC2)c1=O [CPD-126]
50 to 80%

Query (compound): CC(=O)c1c(C)c2cnc(Nc3ccc(N4CCN(C(=O)CC(=O)Nc5ccccc5C(=O)Nc5nc(C)c(C)s5)CC4)cn3)nc2n(C2CCCC2)c1=O [CPD-158] ; field requested: inhibition at 0.2 µM
< 30%

Endpoint output: inhibition at 0.2 µM of CC(=O)c1c(C)c2cnc(Nc3ccc(N4CCN(CCOCCOCCOCCC(=O)Nc5ccccc5C(=O)Nc5nc(C)c(C)s5)CC4)cn3)nc2n(C2CCCC2)c1=O [CPD-178] . Value?
< 30%
